# TARGET OR SYSTEM: Fuc(a1-2)Gal(b1-3)GlcNAc(b1-2)Man(a1-3)[Fuc(a1-2)Gal(b1-3)GlcNAc(b1-2)Man(a1-6)]Man(b1-4)GlcNAc(b1-4)GlcNAc
# EXPERIMENTAL DETAILS: glycan array binding signal (z-score within array); higher = stronger binding
# CONDITION INFO: glycan notation: IUPAC condensed, linker removed
This is one part of a sample in which the strongest signals are shown more often than they occur.
For each entry below, report its glycan array binding signal (z-score) value.
One number for each entry.

As a guide, the following entries are already answered.
>>> number("CAA (Caragana arborescens) (protein) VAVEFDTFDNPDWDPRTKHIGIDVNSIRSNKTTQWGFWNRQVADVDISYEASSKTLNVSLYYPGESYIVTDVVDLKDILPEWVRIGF")
4.07
>>> number("LSectin (Mus musculus), Q8BNX1 (protein) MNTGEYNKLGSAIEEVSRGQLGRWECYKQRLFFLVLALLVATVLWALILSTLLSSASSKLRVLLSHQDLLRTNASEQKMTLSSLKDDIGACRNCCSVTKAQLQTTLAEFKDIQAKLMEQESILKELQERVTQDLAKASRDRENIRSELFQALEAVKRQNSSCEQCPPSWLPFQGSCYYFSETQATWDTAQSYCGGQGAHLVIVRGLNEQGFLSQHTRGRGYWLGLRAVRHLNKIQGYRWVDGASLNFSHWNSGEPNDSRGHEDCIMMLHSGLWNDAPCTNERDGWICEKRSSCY")
-0.18
>>> number("Adiponectin (Rattus norvegicus), Q8K3R4 (protein) MLLLQALLFLLILPSHEGITATEGPGALVPPPKETCAGWMAGIPGYPGHNGIPGRDGRDGTPGEKGEKGDAGVLGPKGDPGDAGMTGAEGPRGFPGTPGRKGEPGEAAYMYHSAFSVGLETRVTVPNVPIRFTKIFYNQQNHYDGSTGKFHCNIPGLYYFSYHITVYMKDVKVSLFKKDKAVLFTYDQYQEKNVDQASGSMLLHLEVGDQVWLQVYGEGDNNGLYADNVNDSTFTGFLLYHDTN")
4.69
>>> number("HPL (Tachypleus tridentatus) (protein) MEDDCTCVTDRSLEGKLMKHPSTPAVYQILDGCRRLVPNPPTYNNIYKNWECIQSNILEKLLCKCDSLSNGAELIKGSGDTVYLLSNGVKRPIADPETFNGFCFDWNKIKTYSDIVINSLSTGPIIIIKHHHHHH")
4.15
>>> number("CGL (Crenomytilus grayanus), H2FH31 (protein) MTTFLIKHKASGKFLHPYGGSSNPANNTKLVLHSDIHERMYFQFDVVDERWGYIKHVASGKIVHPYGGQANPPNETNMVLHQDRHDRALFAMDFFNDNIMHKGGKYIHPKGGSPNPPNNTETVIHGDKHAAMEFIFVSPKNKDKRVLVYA")
-0.195

Pending binder:
// query # glycan array binding signal (z-score) lookup, item Erv41-EDTA (Saccharomyces cerevisiae), Q04651 (protein) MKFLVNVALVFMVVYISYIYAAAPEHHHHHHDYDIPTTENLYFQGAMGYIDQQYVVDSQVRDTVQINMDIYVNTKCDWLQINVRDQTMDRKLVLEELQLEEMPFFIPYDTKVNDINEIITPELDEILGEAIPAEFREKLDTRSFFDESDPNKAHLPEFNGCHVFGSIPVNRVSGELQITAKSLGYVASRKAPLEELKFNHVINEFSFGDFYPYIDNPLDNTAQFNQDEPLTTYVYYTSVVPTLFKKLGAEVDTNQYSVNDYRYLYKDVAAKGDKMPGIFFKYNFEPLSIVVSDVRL
// result 0.618
